Reference for the values: patent US20250188042A1

# Tested on: HSC-3
# Assay comment: CCK8 proliferation assay on squamous cell carcinoma cell line HSC-3
# Format: cell-based
# Test settings: Homo sapiens, first of two lines listed (HSC-3, HSC-4), 48 h, read-out: IC50 against SCC cells (first of two SCC cells)
Experimental readout: pIC50
pIC50 is a log-scale quantity: -log10 of the concentration expressed in molar.

Entry under test: O=C(CCn1ccc(=O)n(CCC(=O)Nc2ccc(C34CC5CC(CC(C5)C3)C4)cc2)c1=O)Nc1ccc(C23CC4CC(CC(C4)C2)C3)cc1 . Its pIC50 was 5.31
